# maps each entry to its TGI
Tested on: HOP-92 NSCLC
Assay: NCI tumour cell line growth inhibition, 48 h
Where a SMILES comes first, the peptide text is derived from it. Bridges are numbered along the chain shown (N, C = ends). [ ]: non-standard residue; d: D form. The star is where a group is joined. ξ: configuration not given here. X26 = O=C(/C=C/C=C/C=C/C=C/C=C/C(=O)*)NC1=C(O)CCC1=O; Dolaproine = CO[C@@H]([C@@H]1CCCN1)[C@@H](C)C(=O)O; Dil = CC[C@H](C)[C@H](NC)[C@@H](CC(=O)O)OC; Pro(4R-Me) = C[C@H]1CN[C@H](C(=O)O)C1; X2 = C[C@@H](N*)[C@@H](O)c1ccccc1; NMeV = CN[C@H](C(=O)O)C(C)C; NMeA = CN[C@@H](C)C(=O)O; ξF = NC(Cc1ccccc1)C(=O)O; ξA = CC(N)C(=O)O

# compound, limit.sign, TGI (µM)
measured = [
    ("O=C(Nc1ccc(Cl)cc1)c1cc2c(cc1Cl)SC(NNCCO)=NS2(=O)=O", ">", 100),
    ("CC1NC(=O)[C@H](C)N(C)C(=O)[C@@H]2CCCN2C(=O)[C@@H](NC(=O)C(Cc2ccccc2)NC(=O)/C=C/C=C/C=C/C=C/C=C/C(=O)NC2=C(O)CCC2=O)COC(=O)[C@@H]2C[C@@H](C)CN2C1=O (stereo partly drawn) (X26-[ξF]SP[NMeA][ξA][Pro(4R-Me)]; ester 2-C)", ">", 100),
    ("COc1ccc(-c2cn[nH]c2-c2cc(OC)c(OC)c(OC)c2)cc1OCc1ccccc1", "=", 15.3),
    ("O=c1[nH]c(=O)n(COCCOCc2ccccc2)cc1Nc1ccccc1", ">", 100),
    ("Nc1n[nH]c2cccc(C#Cc3cccc(NC(=O)c4ccc(N5CCOCC5)c(C(F)(F)F)c4)c3)c12", "=", 3.14),
    ("C[C@H]1[C@H](N2CCCC2)O[Si](C(C)(C)C)(C(C)(C)C)[C@@H]1C", "=", 4.7),
    ("CCCCCCc1cc2c(C)c(C)c(=O)oc2cc1OCCCOc1cc2oc(=O)c(C)c(C)c2cc1CCCCCC", ">", 100),
    ("NC(N)=NN=C(c1ccccc1)c1ccccc1", "=", 55.1),
    ("COc1cc(C(=O)O)ccc1OS(=O)(=O)O", ">", 100),
    ("CC(C)(C)/C(O)=C\\c1nc2ccc(C(F)(F)F)cc2[nH]c1=O", ">", 100),
    ("C/C=C(/C)C(=O)O[C@H]1CCN2CC=C(COC(=O)[C@@](O)([C@H](C)OC)C(C)(C)O)[C@H]12", ">", 100),
    ("Cc1ccc(C(=O)N/N=C(\\N=Nc2cccc([N+](=O)[O-])c2)c2ccc(N(C)C)cc2)cc1", ">", 100),
    ("CCOC(=O)CCc1cccc2c1oc1c(CCNC(=O)OCC3c4ccccc4-c4ccccc43)cccc12", "=", 85.6),
    ("CC[C@H](C)[C@@H]([C@@H](CC(=O)N1CCC[C@H]1[C@H](OC)[C@@H](C)C(=O)N[C@H](C)[C@@H](O)c1ccccc1)OC)N(C)C(=O)[C@@H](NC(=O)[C@@H](NC)C(C)C)C(C)C (H-[NMeV]V[Dil][Dolaproine]-X2)", ">", 100),
    ("CN[C@@H](C)C(=O)N[C@H]1CCS[C@H]2CC(C)(C)[C@@H](C(=O)N[C@H]3c4ccccc4C[C@H]3OCC#CC#CCO[C@@H]3Cc4ccccc4[C@@H]3NC(=O)[C@H]3N4C(=O)[C@@H](NC(=O)[C@H](C)NC)CCS[C@H]4CC3(C)C)N2C1=O", "=", 14.3),
]
